molecular target: recombinant form of Glutaminase 1 (GAC) (Homo sapiens, UniProt O94925); assay: Recombinant Enzyme Assay (GAC coupled to GDH, NADH absorbance, no preincubation); format: biochemical; conditions: no preincubation; read-out: GAC Delta N2 IC50 no preinc
MEASUREMENT_LABEL: IC50

Completed entries (count: 8):
CC(O)(C(=O)Nc1nnc(CCSCCc2nnc(N)s2)s1)C(F)(F)F (stereo not shown) [Compound 56] :: > 50 µM
CC(=O)OCC(=O)Nc1nnc(CCSCCc2nnc(NC(=O)COC(C)=O)s2)s1 [Compound 5] :: > 50 µM
CC(C)(C)c1ccc(CC(=O)Nc2nnc(CCSCCc3nnc(NC(=O)Cc4ccc(C(C)(C)C)cc4)s3)s2)cc1 [Compound 184] :: > 20 µM
CC(C)(C)C(=O)OCN(C(=O)Cc1ccccc1)c1nnc(CCSCCc2nnc(NC(=O)Cc3ccccc3)s2)s1 [Compound 15] :: > 50 µM
CC(C)(C)C(=O)OCN(C(=O)Cc1ccccc1)c1nnc(CCSCCc2nnc(N(COC(=O)C(C)(C)C)C(=O)Cc3ccccc3)s2)s1 [Compound 16] :: > 50 µM
Nc1nnc(CCSCCc2nnc(NC(=O)[C@@H]3CCCN3C(=O)C(F)(F)F)s2)s1 [Compound 23] :: > 50 µM
O=C(Cc1coc2ccccc12)Nc1nnc(CCCCc2nnc(NC(=O)Cc3coc4ccccc34)s2)s1 [Compound 222] :: > 20 µM
CC(=O)O[C@H](C(=O)Nc1nnc(CCSCCc2nnc(NC(=O)[C@@H](OC(C)=O)c3ccccc3)s2)s1)c1ccccc1 [Compound 71] :: > 50 µM

Please report the measured IC50 for O=C(Cn1ccc2ccccc21)Nc1nnc(CCSCCc2nnc(NC(=O)Cn3ccc4ccccc43)s2)s1 [Compound 213]
2.5 µM

Supply reported IC50 belonging to this compound: O=C(Nc1nnc(CCCc2nnc(NC(=O)C(CO)c3ccccc3)s2)s1)C(CO)c1ccccc1 (stereo not shown) [Compound 176]
0.57 µM

Quick one: give measured IC50 for O=C(Cc1cccc(-c2cccc(F)c2)c1)Nc1nnc(CCCCc2nnc(NC(=O)Cc3cccc(-c4cccc(F)c4)c3)s2)s1 [Compound 331]
> 20 µM

Entry COc1ccc(OC)c(CC(=O)Nc2nnc(CCCc3nnc(NC(=O)Cc4cc(OC)ccc4OC)s3)s2)c1 [Compound 265] needs its IC50 filled in; supply it.
0.27 µM

Find the measured IC50 of CC1(C(=O)Nc2nnc(CCSCCc3nnc(NC(=O)C4(C)CCCO4)s3)s2)CCCO1 (stereo not shown) [Compound 119] and report it.
> 20 µM

Tell me IC50 reported for O=C(CCc1ccccc1)Nc1nnc(CCSCCc2nnc(NC(=O)CCc3ccccc3)s2)s1 [Compound 75]
> 50 µM

Identify measured IC50 corresponding to CC(CCc1nnc(NC(=O)Cc2ccccc2)s1)Cc1nnc(NC(=O)Cc2ccccc2)s1 (stereo not shown) [Compound 44]
4.9 µM

Provide one value: measured IC50 of O=C(CC1CCCNC1)Nc1nnc(CCCCc2nnc(NC(=O)CC3CCCNC3)s2)s1 (stereo not shown) [Compound 130]
> 20 µM
